Where these numbers come from: PubChem BioAssay AID1014

Assay: blockers of bacterial quorum-sensing reporter fluorescence – flow cytometry, SAR analogs, SAR follow-up (AID 1014);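 note: Staphylococcus aureus RN6390 with RNAIII-GFP reporter stimulated by AIP; bacteria incubated with compound for 3 hours at 37 °C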
Details: at 20 µM, stronger effect = higher value; measured here: percent reporter-positive cells
Recorded inhibition of percent positive cells by entry
State the answer as a number, implicitly in %.

// known answers, use as guide
[
  {
    "structure smiles": "Cc1ccc(Nc2nc3c(S(=O)(=O)c4ccc(C)cc4)nnn3c3ccccc23)cc1",
    "inhibition of percent positive cells / %": 0.9
  },
  {
    "structure smiles": "Cc1ccc(Nc2c(F)c(F)c(F)c(F)c2C(=O)O)c(C)c1",
    "inhibition of percent positive cells / %": -2.3
  },
  {
    "structure smiles": "COc1c(F)c(F)c(C(=O)O)c(Nc2ccc(C)cc2C)c1F",
    "inhibition of percent positive cells / %": 13.3
  }
]

IN: Request the reported inhibition of percent positive cells associated with CCc1ccc(Nc2nc3c(S(=O)(=O)c4ccc(C)cc4)nnn3c3ccccc23)cc1
OUT: -1.1

IN: Request the reported inhibition of percent positive cells associated with CC(C)c1ccc(S(=O)(=O)c2nnn3c2nc(N)c2ccccc23)cc1
OUT: 0.3

----------
Experiment: blockers of bacterial quorum-sensing reporter fluorescence – flow cytometry, SAR analogs, SAR follow-up (AID 1014)
Conditions: at 20 µM, stronger effect = higher value; measured here: percent reporter-positive cells
value type: inhibition of percent positive cells (%)
State the answer as a number, implicitly in %.

// known answers, use as guide
[
  {
    "molecule": "CCN1CCN(C(C(=O)NC2CCCC2)c2cc3c(cc2[N+](=O)[O-])OCO3)CC1 (stereo not given)",
    "unit symbol": "%",
    "inhibition of percent positive cells": -0.6
  },
  {
    "molecule": "CC(C)c1ccc(NC(=O)C(c2cc3c(cc2[N+](=O)[O-])OCO3)N2CCC(Cc3ccccc3)CC2)cc1 (stereo not given)",
    "unit symbol": "%",
    "inhibition of percent positive cells": -0.4
  },
  {
    "molecule": "Cc1cccc(Nc2nc3c(S(=O)(=O)c4ccccc4)nnn3c3ccccc23)c1",
    "unit symbol": "%",
    "inhibition of percent positive cells": 0.2
  },
  {
    "molecule": "N#Cc1c(NC(=O)COC(=O)CN2C(=O)c3ccccc3C2=O)sc2c1CCCC2",
    "unit symbol": "%",
    "inhibition of percent positive cells": -0.2
  }
]

IN: Request the reported inhibition of percent positive cells associated with CC(C)(C)c1ccc(S(=O)(=O)c2n[nH]n3c2nc(=O)c2ccccc23)cc1
OUT: -1.8

----------
Recorded inhibition of percent positive cells by entry
Test: blockers of bacterial quorum-sensing reporter fluorescence – flow cytometry, SAR analogs, SAR follow-up (AID 1014)
Conditions: at 20 µM, stronger effect = higher value; measured here: percent reporter-positive cells
State the answer as a number, implicitly in %.

// known answers, use as guide
[
  {
    "compound": "O=C(NCC(c1cccnc1)N1CCN(Cc2ccccc2)CC1)c1ccccc1 (stereo unspecified)",
    "inhibition of percent positive cells [%]": -0.4
  },
  {
    "compound": "CC1CCN(C(C(=O)Nc2ccc3c(c2)OCO3)c2ccccc2)CC1 (stereo unspecified)",
    "inhibition of percent positive cells [%]": -0.7
  },
  {
    "compound": "Cc1ccc2occ(/C=C/C(=O)c3ccc(O)cc3)c(=O)c2c1",
    "inhibition of percent positive cells [%]": -0.1
  },
  {
    "compound": "NC1=NC(=O)CC(C(=O)Nc2ccccc2)S1 (stereo unspecified)",
    "inhibition of percent positive cells [%]": -0.6
  },
  {
    "compound": "CCOC(=O)c1oc2cccc(O)c2c1C",
    "inhibition of percent positive cells [%]": -0.8
  }
]

Turning now to a further compound:
IN: Request the reported inhibition of percent positive cells associated with COc1cccc(C(=O)NCC(c2cccnc2)N2CCN(c3ccc(F)cc3)CC2)c1 (stereo unspecified)
OUT: 0

----------
Test: blockers of bacterial quorum-sensing reporter fluorescence – flow cytometry, SAR analogs, SAR follow-up (AID 1014);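 note: Staphylococcus aureus RN6390 with RNAIII-GFP reporter stimulated by AIP; bacteria incubated with compound for 3 hours at 37 °C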
Conditions: at 20 µM
Active and inactive are the calls of the source. No stated cut-off is given here; in the data, active means inhibition of mean fluorescence above about 33%; inactive means the rest.
Bench note: report the call from yes (1) = active, no (0) = inactive

Take a look at these entries with their results.
[
  {
    "compound": "O=C(Nc1ccc2c(c1)OCO2)C(c1ccccc1)N1CCCCC1 (configuration not stated)",
    "assigned class": "yes (1)"
  },
  {
    "compound": "Cc1ccc(S(=O)(=O)c2nnn3c2nc(Nc2ccc(Oc4ccccc4)cc2)c2cc(Cl)ccc23)cc1",
    "assigned class": "no (0)"
  },
  {
    "compound": "COc1ccc(Nc2nc3c(S(=O)(=O)c4ccc(Cl)cc4)nnn3c3ccccc23)cc1",
    "assigned class": "no (0)"
  },
  {
    "compound": "COc1ccc(Nc2nc3c(S(=O)(=O)c4ccc(C(C)(C)C)cc4)nnn3c3ccccc23)cc1",
    "assigned class": "no (0)"
  }
]

Shifting focus to the compound that follows.
IN: Per the records of this test, what outcome belongs to COc1c(F)c(F)c(C(=O)O)c(Nc2cccc(C)c2)c1F ?
OUT: no (0)

----------
Assay: blockers of bacterial quorum-sensing reporter fluorescence – flow cytometry, SAR analogs, SAR follow-up (AID 1014);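 note: Staphylococcus aureus RN6390 with RNAIII-GFP reporter stimulated by AIP; bacteria incubated with compound for 3 hours at 37 °C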
Conditions: at 20 µM, stronger effect = higher value
Quick rule for you: inhibition of mean fluorescence at -10% or higher means 1.0, lower means 0.0.

Take a look at these entries with their results.
[
  {
    "compound": "COc1c(F)c(F)c(C(=O)O)c(Nc2ccc(C)cc2C)c1F",
    "assigned class": 1.0
  },
  {
    "compound": "O=C(NCC(c1cccnc1)N1CCN(c2ccccc2)CC1)c1ccc(F)cc1 (configuration not stated)",
    "assigned class": 0.0
  },
  {
    "compound": "O=C(NCCN1CCN(c2ccccc2)CC1)c1ccccc1F",
    "assigned class": 0.0
  },
  {
    "compound": "Cc1oc2ccc(O)cc2c1C(=O)O",
    "assigned class": 0.0
  },
  {
    "compound": "O=C(NCC(c1cccnc1)N1CCN(c2ccc(F)cc2)CC1)C1CC1 (configuration not stated)",
    "assigned class": 0.0
  }
]

IN: Would you say N#Cc1c(NC(=O)COc2ccccc2)sc2c1CCCC2 shows inhibition of mean fluorescence at minimum -10%?
OUT: 1.0

IN: Would you say CC1CCN(c2c(NCC3CCC(C(=O)NCc4ccc5c(c4)OCO5)CC3)c(=O)c2=O)CC1 (configuration not stated) shows inhibition of mean fluorescence at minimum -10%?
OUT: 0.0

IN: Would you say CC(=O)c1cc2c(cc1NC(=O)CN1CCOCC1)OCO2 shows inhibition of mean fluorescence at minimum -10%?
OUT: 0.0

----------
Test: blockers of bacterial quorum-sensing reporter fluorescence – flow cytometry, SAR analogs, SAR follow-up (AID 1014);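 note: Staphylococcus aureus RN6390 with RNAIII-GFP reporter stimulated by AIP; bacteria incubated with compound for 3 hours at 37 °C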
Settings: at 20 µM, stronger effect = higher value; measured here: percent reporter-positive cells
value type: inhibition of percent positive cells (%)
State the answer as a number, implicitly in %.

// known answers, use as guide
[
  {
    "compound": "O=C(O)c1sc2ccccc2c1Nc1ccccc1",
    "unit symbol": "%",
    "inhibition of percent positive cells": 0.6
  },
  {
    "compound": "O=C(NCCN1CCN(C(=O)c2cc(F)c(F)cc2Cl)CC1)c1cc(F)c(F)cc1Cl",
    "unit symbol": "%",
    "inhibition of percent positive cells": -1.2
  },
  {
    "compound": "O=C(c1ccco1)c1coc2ccc(O)cc12",
    "unit symbol": "%",
    "inhibition of percent positive cells": 0.2
  },
  {
    "compound": "COc1ccc(NC(=O)C(c2cc3c(cc2[N+](=O)[O-])OCO3)N2CC(C)CC(C)C2)cc1 (centres undefined)",
    "unit symbol": "%",
    "inhibition of percent positive cells": 0.5
  },
  {
    "compound": "O=C(NCC(c1cccnc1)N1CCN(c2ccccc2F)CC1)c1ccccc1F (centres undefined)",
    "unit symbol": "%",
    "inhibition of percent positive cells": -0.4
  },
  {
    "compound": "O=C(NCC(c1cccnc1)N1CCN(c2ccccc2F)CC1)c1ccc(F)cc1 (centres undefined)",
    "unit symbol": "%",
    "inhibition of percent positive cells": -1.8
  },
  {
    "compound": "O=C(Nc1ccc2c(c1)OCCO2)N1CCCC(CN2CCc3ccccc3C2)C1 (centres undefined)",
    "unit symbol": "%",
    "inhibition of percent positive cells": 0.1
  },
  {
    "compound": "O=C(NCC(c1cccnc1)N1CCN(c2ccccc2)CC1)c1cccs1 (centres undefined)",
    "unit symbol": "%",
    "inhibition of percent positive cells": 1.1
  },
  {
    "compound": "Cc1ccccc1Nc1c(F)c(F)c(F)c(F)c1C(=O)O",
    "unit symbol": "%",
    "inhibition of percent positive cells": -1.9
  },
  {
    "compound": "O=C(Nc1ccc2c(c1)OCO2)C1CCN(Cc2cnn(-c3ccccc3)c2-n2cccc2)CC1",
    "unit symbol": "%",
    "inhibition of percent positive cells": -0.6
  }
]

Turning now to a further compound:
IN: Request the reported inhibition of percent positive cells associated with O=C(NC1CCCCC1)C(c1cc2c(cc1[N+](=O)[O-])OCO2)N1CCN(c2ccccc2)CC1 (centres undefined)
OUT: 0.3
